- TGT: T1, human PD-L2 antigen (Homo sapiens, UniProt Q9BQ51)
- T1 sequence (Q9BQ51 20-273): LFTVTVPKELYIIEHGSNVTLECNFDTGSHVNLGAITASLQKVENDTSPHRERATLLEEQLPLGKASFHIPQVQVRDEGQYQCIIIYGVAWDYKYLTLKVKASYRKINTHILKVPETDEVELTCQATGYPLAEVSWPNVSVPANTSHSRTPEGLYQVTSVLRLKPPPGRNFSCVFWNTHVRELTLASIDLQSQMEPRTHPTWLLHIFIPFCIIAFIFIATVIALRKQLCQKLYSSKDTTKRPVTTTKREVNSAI
- METHOD DESCRIPTION: Single cycle kinetics on Biacore 8K, binding to human PD-L2 antigen
- TEST CONDITIONS: Table 2, cell culture supernatants
RECORDED ENDPOINT: kd (s⁻¹)
Give bare numbers, in s⁻¹.

Example results:
VH8/VK1: humanized anti-PD-L2 variant; SEQ ID NO: 8/SEQ ID NO: 10 (antibody, V domains shown) VH: QVQLVQSGAEVKKPGSSVKVSCKASGYAFSNYFIEWVKQPPGKGLEWIGLNIPGSGGSNYAEKFKGRATITADKSTSTAYMELSSLRSEDTAVYYCARRRLPPDWYFDVWGQGTTVTVSS VL: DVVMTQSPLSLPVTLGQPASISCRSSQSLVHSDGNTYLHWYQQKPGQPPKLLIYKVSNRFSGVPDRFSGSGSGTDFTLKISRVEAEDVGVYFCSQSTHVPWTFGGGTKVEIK = 0.00012
VH7/VK2: humanized anti-PD-L2 variant; SEQ ID NO: 7/SEQ ID NO: 11 (antibody, V domains shown) VH: QVQLVQSGAELKKPGSSVKVSCKASGYAFSNYFIEWVKQPPGKGLEWIGLNIPGSGGSNYAEKFKGRATITADKSTSTAYMELSSLRSEDTAVYYCARRRLPPDWYFDVWGQGTTVTVSS VL: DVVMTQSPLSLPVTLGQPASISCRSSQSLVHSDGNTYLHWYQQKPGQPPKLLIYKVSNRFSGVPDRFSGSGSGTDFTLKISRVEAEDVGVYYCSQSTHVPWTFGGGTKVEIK = 0.000118
VH0/VK0: chimeric anti-PD-L2 antibody, mouse Fab on human IgG1 backbone; SEQ ID NO: 1/SEQ ID NO: 9 (antibody, V domains shown, human IgG1 constant regions) VH: QVQLQQSGAELVRPGTSVKVSCKASGYAFSNYFIEWVKQRPGQGLEWIGLNIPGSGGSNYAEKFKGKATLTADKSSSTAYMQLSSLTSEDSAVYFCARRRLPPDWYFDVWGTGTTVTVSS VL: DVVMTQTPLSLPVSLGDQASISCRSSQSLVHSDGNTYLHWYLQKPGQSPKLLIYKVSNRFSGVPDRFSGSGSGTDFTLKISRVEAEDLGVYFCSQSTHVPWTFGGGTKLEIK = 9.72e-05

Turning to the following molecule.
Quick one: give measured kd for VH4/VK3: humanized anti-PD-L2 variant; SEQ ID NO: 5/SEQ ID NO: 12 (antibody, V domains shown) VH: QVQLVQSGAEVKKPGSSVKVSCKASGYAFSNYFIEWVKQPPGKGLEWIGLNIPGSGGSNYAEKFKGRVTITADKSTSTAYMELSSLRSEDTAVYYCARRRLPPDWYFDVWGQGTTVTVSS VL: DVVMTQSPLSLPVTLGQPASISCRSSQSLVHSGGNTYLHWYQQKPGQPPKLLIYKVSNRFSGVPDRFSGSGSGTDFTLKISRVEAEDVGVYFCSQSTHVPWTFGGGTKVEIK 0.000466
